Parameter phytotoxicity rating RICE (crop damage): see the listing below.
tested on: upland rice (Oryza sp., var. Tebonnet, RICE); experiment: Pre-emerge test, crop safety; assay type: in vivo; conditions: pre-emerge, 250 g ai/ha, 14 days after application, scale 0-100
// response body must contain only the number

These recorded examples may help you get a feel for the data.
COc1ccccc1C=CC(=O)Nc1c(OC)c(Cl)cc(F)c1-n1c(=O)cc(C(F)(F)F)n(C)c1=O = 10
COc1c(Br)cc(F)c(-n2c(=O)cc(C(F)(F)F)n(C)c2=O)c1NC(=O)C=Cc1ccccc1 [2-177] = 20
Cn1c(C(F)(F)F)cc(=O)n(-c2c(F)cc(OC(F)F)cc2NC(=O)c2ccc3ccccc3c2)c1=O = 60
Cc1c(Cl)cc(F)c(-n2c(=O)cc(C(F)(F)F)n(C)c2=O)c1NC(=O)C=Cc1ccccc1 = 80
COc1cc2ccccc2cc1C(=O)Nc1c(OC)c(Cl)cc(F)c1-n1c(=O)cc(C(F)(F)F)n(C)c1=O = 30
COc1c(Cl)cc(F)c(-n2c(=O)cc(C(F)(F)F)n(C)c2=O)c1NC(=O)COc1ccc(F)cc1 = 93
COc1c(C#N)cc(F)c(-n2c(=O)cc(C(F)(F)F)n(C)c2=O)c1NC(=O)c1ccc2ccccc2c1 [2-180] = 70

# input for lookup
Incoming: Item COc1c(Cl)cc(F)c(-n2c(=O)cc(C(F)(F)F)n(N)c2=O)c1NC(=O)C=Cc1ccccc1 has what recorded phytotoxicity rating RICE (crop damage)?
Outgoing: 40

Where these numbers come from: patent US6355799B1
